Measured pest or weed control at 20 ppm values are reported for all entries that follow.
# Tested on: Diabrotica balteata larvae in soil
# test.description: Critical concentration test/soil insects, Diabrotica balteata
# Format: in vivo
# conditions: Diabrotica balteata, 168 h; 20.0 ppm in soil, 7 days after infestation; read-out: Kill in %
recorded.metric: pest or weed control at 20 ppm (%)

1) CO/N=C(/C(=O)OC)c1ccccc1COc1ccccc1C [kresoxim-methyl] : 0
2) CC(C)(C)C(O)C(Oc1ccc(-c2ccccc2)cc1)n1cncn1 (stereo not drawn) [bitertanol] : 0
3) CC(C1CC1)C(O)(Cn1cncn1)c1ccc(Cl)cc1 (stereo not drawn) [cyproconazole] : 0
4) CN(C)C(=S)SSC(=S)N(C)C [TMTD] : 0
5) CC(C)(C)C(O)(CCc1ccc(Cl)cc1)Cn1cncn1 (stereo not drawn) [tebuconazole] : 0
6) CCCC1COC(Cn2cncn2)(c2ccc(Cl)cc2Cl)O1 (stereo not drawn) [propiconazole] : 0
7) COCC(=O)N(c1c(C)cccc1C)C(C)C(=O)OC (stereo not drawn) [metalaxyl] : 0
8) CC(C)(C)C(O)C(Oc1ccc(Cl)cc1)n1cncn1 (stereo not drawn) [triadimenol] : 0
9) O=C(Nc1ccccc1)N(Cc1ccc(Cl)cc1)C1CCCC1 [pencycuron] : 0
10) CO/C=C(/C(=O)OC)c1ccccc1Oc1cc(Oc2ccccc2C#N)ncn1 [azoxystrobin] : 0
11) N#Cc1c[nH]cc1-c1cccc2c1OC(F)(F)O2 [fludioxonil] : 0
12) N#Cc1c[nH]cc1-c1cccc(Cl)c1Cl [fenpiclonil] : 0
